Entries and their measured Kp at 1 h follow.
experiment-summary: GT localization in healthy versus 4T1 tumor bearing lung tissue
Type: in vivo, BALB/c mice
condition-details: female, BALB/c, mouse, lung/plasma, intravenous, 1 hour after control (CrEL), 4T1 tumor bearing mice; read-out: Lung/Plasma Ratio
observable: Kp at 1 h

{"columns": ["entry-smiles", "observable", "readout-value"],
 "data": [
  ["CC(=O)O[C@H]1C(=O)[C@@]2(C)[C@H]([C@H](OC(=O)c3ccccc3)[C@]3(O)C[C@H](OC(=O)[C@H](O)[C@@H](NC(=O)c4ccccc4)c4ccccc4)C(C)=C1C3(C)C)[C@]1(OC(C)=O)CO[C@@H]1C[C@@H]2O", "Kp at 1 h", 2.5],
  ["Nc1ccn([C@@H]2O[C@H](CO)[C@@H](O)C2(F)F)c(=O)n1", "Kp at 1 h", 2.2]
]}

----------
experiment-summary: Pharmacokinetic study of GT in DcNPs compared to CrEL (Example 2), plasma G, T and dFdU
Format: in vivo, BALB/c mice
condition-details: female, BALB/c, mouse, plasma, iv, 5 mg/kg, Control (CrEL suspension); 50/5 mg/kg G/T IV, mice; read-out: Vss
Excerpt: Drugs extracted from biological matrices such as plasma or tissue homogenates were quantified by a Shimadzu HPLC system coupled to a 3200 QTRAP mass spectrometer (Applied Biosystems, Grand Island, N.Y.). The HPLC system consisted of two Shimadzu LC-20A pumps, a DGU-20A5 degasser, and a Shimadzu SIL-20AC HT autosampler. The mass spectrometer was equipped with an electrospray ionization (ESI) TurbolonSpray source. […] Analytes were monitored using multiple-reaction monitoring (MRM) for positive ions. […]

{"columns": ["entry-smiles", "Vd"],
 "data": [
  ["CC(=O)O[C@H]1C(=O)[C@@]2(C)[C@H]([C@H](OC(=O)c3ccccc3)[C@]3(O)C[C@H](OC(=O)[C@H](O)[C@@H](NC(=O)c4ccccc4)c4ccccc4)C(C)=C1C3(C)C)[C@]1(OC(C)=O)CO[C@@H]1C[C@@H]2O", "0.0356 L"]
]}

----------
experiment-summary: Pharmacokinetic study of GT in DcNPs compared to CrEL (Example 2), plasma G, T and dFdU
Assay type: in vivo, BALB/c mice
condition-details: female, BALB/c, mouse, plasma, iv, 5 mg/kg, GT DcNP; 50/5 mg/kg G/T IV, mice; read-out: MRT (mean residence time)
observable: MRT (h)

{"columns": ["molecule", "observable", "readout-value"],
 "data": [
  ["CC(=O)O[C@H]1C(=O)[C@@]2(C)[C@H]([C@H](OC(=O)c3ccccc3)[C@]3(O)C[C@H](OC(=O)[C@H](O)[C@@H](NC(=O)c4ccccc4)c4ccccc4)C(C)=C1C3(C)C)[C@]1(OC(C)=O)CO[C@@H]1C[C@@H]2O [Paclitaxel]", "MRT", 1]
]}
